- measured-on: Sphingosine kinase 2 (Homo sapiens)
- Sequence (Q9NRA0 whole entry): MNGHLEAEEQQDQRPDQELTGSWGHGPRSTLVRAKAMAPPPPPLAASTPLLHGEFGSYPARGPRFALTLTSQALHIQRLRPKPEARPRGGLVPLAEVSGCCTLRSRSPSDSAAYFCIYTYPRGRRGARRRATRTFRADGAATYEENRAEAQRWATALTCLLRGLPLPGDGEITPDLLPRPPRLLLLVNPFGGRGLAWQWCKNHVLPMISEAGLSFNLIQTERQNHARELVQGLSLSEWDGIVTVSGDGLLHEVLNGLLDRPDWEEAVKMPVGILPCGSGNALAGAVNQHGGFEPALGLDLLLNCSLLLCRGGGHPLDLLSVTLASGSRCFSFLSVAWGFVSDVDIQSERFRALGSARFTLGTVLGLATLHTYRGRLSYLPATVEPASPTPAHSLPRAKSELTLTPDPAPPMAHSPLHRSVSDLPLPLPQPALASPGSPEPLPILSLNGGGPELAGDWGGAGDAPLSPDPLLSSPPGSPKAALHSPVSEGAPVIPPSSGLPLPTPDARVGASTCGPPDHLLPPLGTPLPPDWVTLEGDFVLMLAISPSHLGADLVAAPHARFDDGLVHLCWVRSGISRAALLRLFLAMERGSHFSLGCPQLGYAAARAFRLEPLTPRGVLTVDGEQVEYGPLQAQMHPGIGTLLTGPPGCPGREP
- protocol-details: Inhibition of human SphK2 expressed in baculovirus infected in Sf9 cells using D-erythro-sphingosine as substrate and [gamma-32P]ATP by scintillation counting method
pKi: −log10 of the molar value.
The following compounds are shown together with reported pKi values.
experimental-readout: pKi

smi: CCCCCCCCCCCCc1cccc(-c2noc(C3(C(=N)N)CC3)n2)c1
experimental-readout: pKi
recorded-measurement: 4.85
--
smi: CCCCCCCCCCCCCc1ccc(-c2noc(C3(C(=N)N)CC3)n2)cc1
experimental-readout: pKi
recorded-measurement: 4.96
--
smi: CCCCCCCCCCCCc1ccc(-c2noc(C3(C(=N)N)CC3)n2)cc1
experimental-readout: pKi
recorded-measurement: 5.22
--
smi: CCCCCCCCCCCc1cccc(-c2noc(C3(C(=N)N)CC3)n2)c1
experimental-readout: pKi
recorded-measurement: 5.00
